test_system: 5-HT4 receptor (Sus scrofa, UniProt Q6Q253)
Sequence (Q6Q253 1-402): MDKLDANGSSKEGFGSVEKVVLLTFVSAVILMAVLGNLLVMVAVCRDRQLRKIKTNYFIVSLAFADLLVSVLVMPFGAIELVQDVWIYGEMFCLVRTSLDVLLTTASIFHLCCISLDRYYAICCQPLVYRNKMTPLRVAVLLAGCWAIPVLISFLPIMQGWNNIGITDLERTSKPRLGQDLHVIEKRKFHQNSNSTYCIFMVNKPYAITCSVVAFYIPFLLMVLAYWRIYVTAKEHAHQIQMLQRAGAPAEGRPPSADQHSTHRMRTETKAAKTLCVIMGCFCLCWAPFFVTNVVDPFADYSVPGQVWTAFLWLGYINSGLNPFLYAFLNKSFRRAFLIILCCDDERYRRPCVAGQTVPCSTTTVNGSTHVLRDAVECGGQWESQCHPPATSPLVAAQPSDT
test_method_notes: 5-HT4 receptor binding (competition against [^3 H]-GR 113808, pig striatum)
details: 0.1 nM [^3 H]-GR 113808, 30 min at 37° C., read-out: Ki (affinity for the 5-HT4 receptor)
Assign pKi to each entry below.
Answers are plain numbers, as −log10 of the molar value.

Note to self: pKi recorded for CCn1c(=O)n(C(=O)NCC2CCN(C[C@H](CC(N)=O)NC(=O)Nc3ccccc3)CC2)c2ccccc21 was 8.37

// sample CCn1c(=O)n(C(=O)NCC2CCN(C[C@H](CO)NC(=O)OCc3ccccc3)CC2)c2ccccc21 , its pKi was 9.43

Now look at this entry.
Record CCn1c(=O)n(C(=O)NCC2CCN(C[C@H](CO)NC(=O)Nc3ccccc3)CC2)c2ccccc21 , field pKi: 8.80
